# Tested on: MARIMO
# Experimental Protocol: cell viability relative to vehicle control; higher = less cytotoxic;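 further: after 48 h exposure read by CellTiter-Glo luminescence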
# Recorded Conditions: 10 µM; SRSF2 genotype: SRSF2 wt/wt
Value Kind: cell viability (%)
Response body: numeric value in %, unit text excluded.

COc1ccc(-n2c(C)c([N+](=O)[O-])c3ccc(O)cc32)cc1 | 108
O=C(c1ccccc1)c1ccc2n1CCC2C(=O)O (stereo not given) | 102
CC(C)=CCCC(C)(O)C1CCC2(C)C1C(O)CC1C3(C)CCC(O)C(C)(C)C3CCC12C [(20S)-Protopanaxadiol] | 109
CC(C)c1nc(CN(C)C(=O)N[C@H](C(=O)N[C@@H](Cc2ccccc2)C[C@H](O)[C@H](Cc2ccccc2)NC(=O)OCc2cncs2)C(C)C)cs1 | 95
CC[C@H]1[C@@H](O)[C@@H]2[C@H](CC[C@]3(C)[C@@H]([C@H](C)CCC(=O)O)CC[C@@H]23)[C@@]2(C)CC[C@@H](O)C[C@@H]12 | 105
O=C1c2c(O)cc(O)cc2OC(c2ccc(O)c(O)c2)C1O (stereo not given) [Taxifolin (Dihydroquercetin)] | 96.5
COC(=O)c1ccc2c(c1)nc(NC(=O)c1ccccc1)n2CCCc1ccccc1 | 91.6
O=C1O[C@H]([C@@H](O)CO)C(O)=C1O | 92.8
CC1OC(OC2C(OC3CCC4(C)C(CCC5(C)C4CC=C4C6CC(C)(C)CCC6(C(=O)OC6OC(COC7OC(CO)C(O)C(O)C7O)C(O)C(O)C6O)CCC45C)C3(C)CO)OCC(O)C2O)C(O)C(O)C1O (stereo not given) [Dipsacoside B] | 98.2

Now for another entry.
Exercise: Item C[C@H](CCC(=O)NCCS(=O)(=O)O)[C@H]1CC[C@H]2[C@@H]3[C@@H](O)C[C@@H]4C[C@H](O)CC[C@]4(C)[C@H]3CC[C@]12C has what recorded cell viability?
Solution: 108

---

# Tested on: MOLM14
# Experimental Protocol: cell viability relative to vehicle control; higher = less cytotoxic
# Recorded Conditions: 10 µM; SRSF2 genotype: SRSF2 wt/wt
Counter-ions that a name gives are not always drawn.
Value Kind: cell viability (%)
Form entry: value (%) — number only.

Example results:
COc1cc(/C=C/C(=O)O[C@H]2[C@H](O)[C@@H](CO)O[C@@]2(CO)O[C@H]2O[C@H](CO)[C@@H](O)[C@H](O)[C@H]2O)ccc1O | 112
CO[C@H]1/C=C\C=C(/C)C(=O)NC2=CC(=O)C(NCCN(C)C)=C(C[C@@H](C)C[C@H](OC)[C@H](O)[C@@H](C)/C=C(\C)[C@@H]1OC(N)=O)C2=O [17-DMAG HCl (Alvespimycin)] | 0.4
CN[C@@H](C)C(=O)N[C@H](C(=O)N1CCC[C@H]1c1nc(C(=O)c2ccc(F)cc2)cs1)C1CCCCC1 | 82.3

Exercise: Quick one: cell viability for CC(=O)O[C@]1(C(C)=O)CC[C@H]2[C@@H]3CCC4=CC(=O)CCC4=C3[C@@H](c3ccc(N(C)C)cc3)C[C@@]21C [Ulipristal acetate] ?
Solution: 93.6

Exercise: Recorded cell viability of Nc1ccn([C@@H]2O[C@H](CO)[C@@H](O)[C@@H]2O)c(=O)n1 [Cytarabine hydrochloride] , please.
Solution: 1.49

---

# Test system: OCI-AML2
# Experimental Protocol: cell viability relative to vehicle control; higher = less cytotoxic
# Recorded Conditions: 10 µM; SRSF2 genotype: P95H/wt
Value Kind: cell viability (%)
Return type: number; implicit unit %.

As a guide, the following entries are already answered.
Cc1ccc(NC(=O)Nc2cc(C(F)(F)F)ccc2F)cc1Nc1ccc2c(c1)NC(=O)/C2=C\c1ccc[nH]1 | 74.4
Nc1ccccc1NC(=O)c1ccc(CNc2nccc(-c3cccnc3)n2)cc1 | 0.44
COc1ccc([C@]2(C#N)CC[C@@H](C(=O)O)CC2)cc1OC1CCCC1 | 95.6

Now for a further compound.
Exercise: Quick one: cell viability of CC(/C=C1\SC(=S)N(CC(=O)O)C1=O)=C\c1ccccc1 ?
Solution: 102

---

Collected cell viability values appear next to each entry.
# Tested on: MOLM14
# Experimental Protocol: cell viability relative to vehicle control; higher = less cytotoxic
# Recorded Conditions: 10 µM; SRSF2 genotype: SRSF2 wt/wt
Where a name gives a salt, the structure may show the parent alone.
Give just the number in %; leave the unit off.

NC(=O)c1cccc(N)c1 [INO-1001 (3-Aminobenzamide)] | 96.6
CC(=O)SCC(Cc1ccccc1)C(=O)NCC(=O)OCc1ccccc1 (stereo unspecified) [Racecadotril (Acetorphan)] | 105
COc1ccc(S(=O)(=O)Nc2cc(-c3c(O)ccc4ccccc34)c(O)c3ccccc23)cc1 | 0.34
CCc1nc(-c2cccc(C)c2)c(-c2ccnc(NC(=O)c3ccccc3)c2)s1 | 86.7
COc1ccccc1OCCNCC(O)COc1cccc2[nH]c3ccccc3c12 (stereo unspecified) [Carvedilol] | 56.4
COC(=O)[C@H](c1ccccc1Cl)N1CCc2sccc2C1 [Clopidogrel (Plavix)] | 96.9
CC1(C)O[C@H]2CC(=O)OC[C@]23[C@H]2CC[C@@]4(C)[C@H](c5ccoc5)OC(=O)[C@H]5O[C@]54[C@]2(C)C(=O)C[C@@H]13 [Limonin] | 109
O=c1cc(N2CCOCC2)oc2c1ccc1ccccc12 | 96.7

Exercise: Form entry - test system: MOLM14; read-out: cell viability; compound: Cc1cccc(Nc2nc(-c3ccncc3)cs2)c1
Solution: 84.9

Exercise: // fetch MOLM14 cell viability for CC#CC(=O)Nc1ccc2ncnc(Nc3cccc(Br)c3)c2c1
Solution: 1.92

Exercise: Given the entry Cc1nc(Nc2ccc(F)cc2)nc(N2CCc3ccccc3C2C)c1C (stereo unspecified) [Revaprazan Hydrochloride] , what cell viability was observed with MOLM14?
Solution: 72.5

Exercise: Lookup: cell viability / MOLM14 / CCOC(=O)C1=C(C)NC(C)=C(C(=O)OC)C1c1cccc(Cl)c1Cl (stereo unspecified) [Felodipine (Plendil)]
Solution: 86.3

Exercise: Notebook: pull reported cell viability for MOLM14, entry COc1cc([C@@H]2c3cc4c(cc3[C@@H](O[C@@H]3O[C@@H]5CO[C@@H](C)O[C@H]5[C@H](O)[C@H]3O)[C@H]3COC(=O)[C@H]23)OCO4)cc(OC)c1O [Etoposide (VP-16)]
Solution: 4.31

Exercise: Give cell viability (MOLM14) of the following compound: NC(=O)NO [Hydroxyurea (Cytodrox)]
Solution: 108

Exercise: What is its cell viability for MOLM14? Entry: O=C(O)c1ccc(N2C(=O)C(=Cc3ccc(-c4ccc([N+](=O)[O-])cc4)o3)C=C2c2ccccc2)cc1
Solution: 94

Exercise: Quick check: cell viability on MOLM14, item CCCNC(C)C(=O)Nc1ccccc1C (stereo unspecified) [Prilocaine] ?
Solution: 85.6

Exercise: Notebook entry, MOLM14 assay: cell viability of CO/N=C(\C(=O)N[C@@H]1C(=O)N2C(C(=O)[O-])=C(C[N+]3(C)CCCC3)CS[C@H]12)c1csc(N)n1 [Cefepime Dihydrochloride Monohydrate] = ?
Solution: 107

---

# System: MOLM14
# Experimental Protocol: cell viability relative to vehicle control; higher = less cytotoxic
# Recorded Conditions: 10 µM; SRSF2 genotype: SRSF2 wt/wt
Counter-ions that a name gives are not always drawn.
Reported values of cell viability for individual entries
# value in %; strip the unit string

A selection of reference data follows.
Cc1ncc([N+](=O)[O-])n1CC(O)CCl (stereo not given) | 105
CN(CCOc1ccc(NS(C)(=O)=O)cc1)CCc1ccc(NS(C)(=O)=O)cc1 [Dofetilide (Tikosyn)] | 101

Exercise: # get_value(readout= cell viability, system= MOLM14) for NC(=O)c1cccc(-c2cc(Nc3ccc(OC(F)(F)F)cc3)ncn2)c1
Solution: 102

Exercise: Please tell me: cell viability of CN1C(=O)[C@@H](NC(=O)c2n[nH]c(Cc3ccccc3)n2)COc2ccccc21 , system MOLM14?
Solution: 106

Exercise: // lookup cell viability | system=MOLM14 | key= CCCCCCOc1cc(C)c(O)c(C)c1C [HTHQ(1-O-Hexyl-2,3,5-trimethylhydroquinone)]
Solution: 102

Exercise: Record lookup: for MOLM14, what cell viability belongs to Cc1cc(C)c(S(=O)(=O)n2cc(C)cc2C)c(C)c1 ?
Solution: 92.2

Exercise: Short answer please: cell viability, MOLM14, entry O=C(O)CNC(=O)c1nc(Cl)c2ccccc2c1O
Solution: 89.1

Exercise: Which measured cell viability belongs to O=c1c(-c2ccc(O)cc2)coc2cc(O[C@@H]3O[C@H](CO)[C@@H](O)[C@H](O)[C@H]3O)ccc12 , tested on MOLM14?
Solution: 104

Exercise: Observed cell viability on MOLM14 for CC(=O)Nc1nc2c(Oc3cc(-c4ccc(C(F)(F)F)cc4)ncn3)cccc2s1 , please.
Solution: 97.7

Exercise: # value lookup — system MOLM14, readout cell viability, item O=c1cc(CN2CCOCC2)occ1OCCCCCSc1ccnc2cc(C(F)(F)F)ccc12
Solution: 68.5

Exercise: Tell me reported cell viability for COc1cccc(-c2cc(F)ccc2C2Cc3nc(N)nc(C)c3C(=O)N2)n1 (stereo not given) , tested with MOLM14.
Solution: 3

Exercise: For MOLM14, provide cell viability of CC1(C)CC[C@]2(C(=O)O)CC[C@]3(C)C(=CC[C@@H]4[C@@]5(C)C[C@@H](O)[C@H](O)C(C)(C)[C@@H]5CC[C@]43C)[C@@H]2C1 please.
Solution: 86.9

Exercise: // fetch MOLM14 cell viability for COc1cc(N2CCN(C)CC2)ccc1Nc1ncc2c(n1)N(C)c1ccccc1C(=O)N2
Solution: 91.3

Exercise: Could you share what cell viability was measured for CCCNCC(O)COc1ccccc1C(=O)CCc1ccccc1 (stereo not given) [Propafenone HCl] , tested on MOLM14?
Solution: 81.2

Exercise: Hello, I am looking for reported cell viability with MOLM14 for S=c1[nH]cnc2nc[nH]c12 . Could you help?
Solution: 63.6

Exercise: For MOLM14, provide cell viability of CN1[C@@H]2CC[C@H]1C[C@@H](OC(=O)c1c[nH]c3ccccc13)C2 [Tropisetron] please.
Solution: 104

Exercise: Test system MOLM14; read-out cell viability; what value for CC(C(=O)Nc1cccc(/N=C/c2c(O)ccc3ccccc23)c1)c1ccccc1 (stereo not given) [Salermide] ?
Solution: 101
